Can you tell me self-cleavage for the items I'm about to list?
B1: LINE1-mini (parent)
chain: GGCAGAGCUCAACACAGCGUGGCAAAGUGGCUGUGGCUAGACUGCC

Variants of: B1
EXPERIMENT_DESCRIPTION: self-cleavage, relative activity (ratio to wild type); higher = more cleavage; in vitro, sequencing; the parent is a self-cleaving ribozyme
Please respond with just the number, no unit label.

Suppose we examine the variant GGCAGAGCUCUACACAGCGUUGCAAAGUGGCUGUGGCUAGACUGCC [A11U G21U] ; what self-cleavage value has been reported? 0.1

Record: GGCAGAGCUCAACACAGCGUGGCUAAGUGGCUGUGGCUAUACUGCC [A24U G40U] 0.19

Record: GGCAGAGCUCAACACAGCGUGGCAAAGUGGCUGUGGCUGGGCUGCC [A39G A41G] 0.01

Record: GACAGAGCUCAACACAGCGUGGCAAAGUGGCUGUGGCUAGGCUGCC [G2A A41G] 0.4

Record: GGCAGAGCUCAACACAGCGUCGCAAAUUGGCUGUGGCUAGACUGCC [G21C G27U] 0.84

Record: GGGAGAGCUCAACACAGCGUGGCAAAGUGGCUGUGGCUAGACUGAC [C3G C45A] 0.45

Record: GGCAGAGCACAACACAGCGUGGCAAAGUGGCGGUGGCUAGACUGCC [U9A U32G] 0.19

Record: GUCAAAGCUCAACACAGCGUGGCAAAGUGGCUGUGGCUAGACUGCC [G2U G5A] 0.06

Record: GGCAGAGCUCAACACAGCGUGGCAAACUGGCUGUGGCUAGACAGCC [G27C U43A] 0.09

Record: GGCAUAGCUCAACACAGCGUGGCAAAGUGGCUGUGGCUCGACUGCC [G5U A39C] 0.06

Record: GGCAGAGCUCAACAUAGCGUGGCAAUGUGGCUGUGGCUAGACUGCC [C15U A26U] 0.74

Record: GGCAGAGCUCAUCACAGCGUGGCGAAGUGGCUGUGGCUAGACUGCC [A12U A24G] 0.39

Record: GCCAGGGCUCAACACAGCGUGGCAAAGUGGCUGUGGCUAGACUGCC [G2C A6G] 0.07

Record: GGCAGAGCUCAACACAGCGUGACAAAGUGGCUGUGGCGAGACUGCC [G22A U38G] 0.01

Record: GGCAGAGCUCAACACAGCAUGGCAAAGUGGCUGUGGCUAGACUGCG [G19A C46G] 1.53

Record: GGCGGAGCUCAACACAGCGUGGCAAAGUGGCUGUGGCAAGACUGCC [A4G U38A] 0.23

Record: GGCAGAGCUGAACACAGCGUGGCAAAGUGGGUGUGGCUAGACUGCC [C10G C31G] 0.02

Record: GGCAGAGCUCAACACAGCGUGGCACAGUGACUGUGGCUAGACUGCC [A25C G30A] 0.44

Record: GGCAGAGCUCAACACAGCGUGGCAAAGAGGCUGUGGCUAGAGUGCC [U28A C42G] 0.02

Record: GGCAGAGCUCAACACAGCGUGGCGAAGGGGCUGUGGCUAGACUGCC [A24G U28G] 0.45

Record: GGUAUAGCUCAACACAGCGUGGCAAAGUGGCUGUGGCUAGACUGCC [C3U G5U] 0.2

Record: GGCCGAGCUCAACACAGCGUGGCAAAGGGGCUGUGGCUAGACUGCC [A4C U28G] 0.18
